# assay.target: T1, EsCas13d, nuclease-dead (Eubacterium siraeum, UniProt B0MS50, R295A;H300A;R849A;H854A)
# T1 sequence: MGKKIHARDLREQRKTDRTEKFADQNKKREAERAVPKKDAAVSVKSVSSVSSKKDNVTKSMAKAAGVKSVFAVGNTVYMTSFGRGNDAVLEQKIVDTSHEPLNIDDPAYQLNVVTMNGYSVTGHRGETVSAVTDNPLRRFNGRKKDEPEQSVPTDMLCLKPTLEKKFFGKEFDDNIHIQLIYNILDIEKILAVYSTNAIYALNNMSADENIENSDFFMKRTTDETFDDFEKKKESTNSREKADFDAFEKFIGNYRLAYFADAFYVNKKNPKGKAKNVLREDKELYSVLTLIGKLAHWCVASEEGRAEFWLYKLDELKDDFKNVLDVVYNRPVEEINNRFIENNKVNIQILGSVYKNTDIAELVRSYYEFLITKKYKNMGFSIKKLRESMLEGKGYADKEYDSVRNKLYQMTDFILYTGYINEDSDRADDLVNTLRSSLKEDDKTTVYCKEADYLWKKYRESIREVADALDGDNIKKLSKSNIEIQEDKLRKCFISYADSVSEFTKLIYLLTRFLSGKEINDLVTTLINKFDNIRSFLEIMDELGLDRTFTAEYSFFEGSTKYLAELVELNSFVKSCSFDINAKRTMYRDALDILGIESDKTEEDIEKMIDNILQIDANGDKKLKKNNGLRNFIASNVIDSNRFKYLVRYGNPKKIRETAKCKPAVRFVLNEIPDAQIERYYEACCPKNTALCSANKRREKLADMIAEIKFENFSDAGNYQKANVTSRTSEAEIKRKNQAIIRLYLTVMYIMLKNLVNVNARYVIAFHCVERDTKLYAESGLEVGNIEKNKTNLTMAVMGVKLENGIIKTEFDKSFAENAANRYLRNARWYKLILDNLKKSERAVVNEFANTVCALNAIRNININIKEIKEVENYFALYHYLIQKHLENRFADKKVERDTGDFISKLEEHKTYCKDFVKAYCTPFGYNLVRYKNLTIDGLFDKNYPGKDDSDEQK
# assay.protocol: crRNA (strand 1, pre-loaded); Mg2+; 40 mM Tris-HCl pH 7.5, 150 mM NaCl, 6 mM MgCl2, 1 mM DTT, 0.1% Tween-20, 0.2 mg/ml BSA; 25 C; 10 min per concentration, then washed
# cond: tags: His6-TwinStrep-SUMO cleaved; N-terminal SNAP kept (SNAP-Surface 488); label: 3' end held by stalled T7 RNA polymerase

binder	Kd (nM)
target 1 insC 3' of 8 (mixed) RNA 1: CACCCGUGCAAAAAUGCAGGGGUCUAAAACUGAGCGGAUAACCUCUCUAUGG RNA 2: GGGAAUGGAUCCACAUCUACGAAUUCGUACCAUAGAGAGGUUAUCCCGCUCACCGAGAUCGGAAGAGCACACGU	13.2
target 2 MT 5'PFS CAG 3'PFS UUC (mixed) RNA 1: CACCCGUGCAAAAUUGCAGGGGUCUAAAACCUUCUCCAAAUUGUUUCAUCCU RNA 2: GGGAAUGGAUCCACAUCUACGAAUUCCAGAGGAUGAAACAAUUUGGAGAAGUUCAGAUCGGAAGAGCACACGU	19
target 2 MT 5'PFS CUA 3'PFS ACC (mixed) RNA 1: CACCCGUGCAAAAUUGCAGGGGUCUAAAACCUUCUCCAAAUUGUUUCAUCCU RNA 2: GGGAAUGGAUCCACAUCUACGAAUUCCUAAGGAUGAAACAAUUUGGAGAAGACCAGAUCGGAAGAGCACACGU	1.8
target 2 MT 5'PFS UCG 3'PFS AGG (mixed) RNA 1: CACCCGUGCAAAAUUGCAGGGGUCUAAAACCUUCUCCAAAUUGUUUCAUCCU RNA 2: GGGAAUGGAUCCACAUCUACGAAUUCUCGAGGAUGAAACAAUUUGGAGAAGAGGAGAUCGGAAGAGCACACGU	35
target 1 insU 3' of 14,insU 3' of 14 (mixed) RNA 1: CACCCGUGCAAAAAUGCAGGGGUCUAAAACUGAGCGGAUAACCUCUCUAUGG RNA 2: GGGAAUGGAUCCACAUCUACGAAUUCGUACCAUAGAGAUUGGUUAUCCGCUCACCGAGAUCGGAAGAGCACACGU	21
target 2 MT 5'PFS UGU 3'PFS CAC (mixed) RNA 1: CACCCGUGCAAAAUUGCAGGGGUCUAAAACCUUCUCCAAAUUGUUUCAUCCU RNA 2: GGGAAUGGAUCCACAUCUACGAAUUCUGUAGGAUGAAACAAUUUGGAGAAGCACAGAUCGGAAGAGCACACGU	16
target 1 insC 3' of 22,insU 3' of 15 (mixed) RNA 1: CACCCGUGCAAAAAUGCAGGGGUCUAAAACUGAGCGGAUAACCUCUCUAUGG RNA 2: GGGAAUGGAUCCACAUCUACGAAUUCGUACCCAUAGAGUAGGUUAUCCGCUCACCGAGAUCGGAAGAGCACACGU	29
target 1 MT 5'PFS GCC 3'PFS UAA (mixed) RNA 1: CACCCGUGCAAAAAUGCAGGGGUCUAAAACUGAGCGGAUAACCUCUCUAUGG RNA 2: GGGAAUGGAUCCACAUCUACGAAUUCGCCCCAUAGAGAGGUUAUCCGCUCAUAAAGAUCGGAAGAGCACACGU	16
